- experimental-system: endogenous CGRP receptor (Homo sapiens, UniProt O60894+Q16602)
- Sequence (Q16602 23-461): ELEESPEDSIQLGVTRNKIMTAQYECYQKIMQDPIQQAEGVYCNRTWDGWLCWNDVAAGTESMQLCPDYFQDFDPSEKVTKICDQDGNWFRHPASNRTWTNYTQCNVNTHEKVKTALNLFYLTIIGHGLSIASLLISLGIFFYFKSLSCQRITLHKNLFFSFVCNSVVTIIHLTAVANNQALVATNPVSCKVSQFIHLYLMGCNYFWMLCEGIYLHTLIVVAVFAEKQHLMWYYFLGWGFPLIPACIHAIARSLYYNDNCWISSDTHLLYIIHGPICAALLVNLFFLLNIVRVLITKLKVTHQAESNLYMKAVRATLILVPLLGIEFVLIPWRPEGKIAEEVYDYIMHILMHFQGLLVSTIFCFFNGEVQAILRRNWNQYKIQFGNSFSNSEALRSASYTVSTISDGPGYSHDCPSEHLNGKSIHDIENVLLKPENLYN
- Sequence (O60894 27-148): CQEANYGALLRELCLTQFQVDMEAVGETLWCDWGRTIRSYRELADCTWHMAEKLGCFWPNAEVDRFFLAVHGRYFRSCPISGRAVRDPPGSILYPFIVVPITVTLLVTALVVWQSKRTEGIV
- experiment-description: CGRP functional antagonism using SK-N-MC-BLA (4C10), β-lactamase transcriptional reporter assay
- measurement-setup: SK-N-MC (4C10) cells, inhibition of β-lactamase expression in the presence of 200 pM CGRP
pIC50: −log10 of the molar value.
reported-property: pIC50

Here is how some molecules turned out for pIC50.
# molecule, pIC50
data = [
    ("CC(C)CCN1C(=O)C(CC(=O)N2CCC(N3CCc4ccccc4NC3=O)CC2)SC1[C@H](C)c1ccccc1 (stereo partly shown)", "5.30 to 6.00"),
    ("CC(C)CCN1C(=O)C(CC(=O)N2CCC(c3cc4ccccc4[nH]c3=O)CC2)SC1c1ccccc1 (stereo not shown)", "> 6.00"),
    ("CN1CCN(c2ccccc2[C@@H]2S[C@](C)(CC(=O)N3CCC(N4Cc5ccccc5NC4=O)CC3)C(=O)N2CCC(C)(C)C)CC1", "5.30 to 6.00"),
]

As a next step, examine the molecule that follows.
The molecule identified as COC(=O)[C@H](CC(C)C)N1C(=O)C(CC(=O)N2CCC(N3Cc4ccccc4NC3=O)CC2)SC1c1ccccc1 (stereo partly shown) registered its pIC50 at 5.30 to 6.00

* * *

- experimental-system: endogenous CGRP receptor (Homo sapiens, UniProt O60894+Q16602)
- experiment-description: CGRP functional antagonism using SK-N-MC-BLA (4C10), β-lactamase transcriptional reporter assay
- Assay type: cell-based
- measurement-setup: SK-N-MC (4C10) cells, inhibition of β-lactamase expression in the presence of 200 pM CGRP
pIC50: −log10 of the molar value.
reported-property: pIC50

Here is how some molecules turned out for pIC50.
# molecule, pIC50
rows = [
    ("C=CCN1C(=O)C(CC(=O)N2CCC(N3CCc4ccccc4NC3=O)CC2)SC1c1ccccc1 (stereo not shown) [Compound 96]", "5.30 to 6.00"),
    ("CC(C)(C)CCN1C(=O)C(CC(=O)N2CCC(n3c(=O)[nH]c4ncccc43)CC2)SC1c1ccccc1N1CCC(N2CCCCC2)CC1 (stereo not shown) [Compound 387]", "> 6.00"),
    ("COc1ccc(C2SC(CC(=O)N3CCC(N4Cc5ccccc5NC4=O)CC3)C(=O)N2CCC(C)C)c(F)c1 (stereo not shown) [Compound 283]", "5.30 to 6.00"),
]

As a next step, examine the molecule that follows.
The molecule identified as CC(C)(C)N1CCN(c2c(F)cccc2C2S[C@@H](CC(=O)N3CCC(n4c(=O)[nH]c5ncccc54)CC3)C(=O)N2Cc2ccccc2)CC1 (stereo partly shown) [Compound 540] registered its pIC50 at > 6.00

* * *

Give Ki for every item shown.
- experimental-system: CGRP receptor (SK-N-MC membrane) (Homo sapiens, UniProt O60894+Q16602)
- Construct: Purified SK-N-MC membrane was purchased from Perkin Elmer; purchased Perkin Elmer; host or cells: SK-N-MC membrane
- Sequence (Q16602 23-461): as the sequence (Q16602 23-461) above
- Sequence (O60894 27-148): as the sequence (O60894 27-148) above
- experiment-description: I125-CGRP binding displacement assay on purified SK-N-MC membrane

# compound, Ki
rows = [
    ("CC(C)(C)N1CCN(c2c(F)cccc2[C@@H]2S[C@@H](CC(=O)N3CCC(N4CCc5ccccc5NC4=O)CC3)C(=O)N2CCc2ccc(F)cc2)CC1", "< 1000 nM"),
    ("CC(C)CN1C(=O)C(CC(=O)N2CCC(N3Cc4ccccc4NC3=O)CC2)SC1c1ccccc1 (stereo not shown)", "< 1000 nM"),
    ("CC(C)(C)CCN1C(=O)C(CC(=O)N2CCC(n3c(=O)[nH]c4ncccc43)CC2)SC1c1ccccc1N1CCC(O)CC1 (stereo not shown)", "< 1000 nM"),
    ("CN1CCN(c2ccccc2[C@@H]2SC(CC(=O)N3CCCCC3)C(=O)N2CCC(C)(C)C)CC1 (stereo partly shown)", "> 5000 nM"),
    ("CC(C)CCN1C(=O)C(CC(=O)N2CCC(N3CCc4ccccc4NC3=O)CC2)SC1c1ccccc1N1CCOCC1 (stereo not shown)", "< 1000 nM"),
    ("CC(C)CCN1C(=O)C(CC(=O)N2CCC(n3c(=O)[nH]c4ccccc43)CC2)SC1c1ccccc1 (stereo not shown)", "> 5000 nM"),
]

Please report Ki for every entry that follows.
1. CC(C)(C)N1CCN(c2c(F)cccc2[C@H]2S[C@@H](CC(=O)N3CCC(N4CCc5ccccc5NC4=O)CC3)C(=O)N2CCc2ccccc2)CC1
2. CC(C)N1CCN(c2c(F)cccc2C2SC(CC(=O)N3CCC(N4CCc5ccccc5NC4=O)CC3)C(=O)N2CCC(C)(C)C)CC1 (stereo not shown)
3. CC(C)(C)N1CCN(c2c(F)cccc2C2S[C@@H](CC(=O)N3CCC(n4c(=O)[nH]c5ncccc54)CC3)C(=O)N2CC2CCOCC2)CC1 (stereo partly shown)
4. CN(C)[C@H]1CCN(c2ccccc2C2SC(CC(=O)N3CCC(n4c(=O)[nH]c5ncccc54)CC3)C(=O)N2CCC(C)(C)C)C1 (stereo partly shown)

< 1000 nM
> 5000 nM
< 1000 nM
< 1000 nM

* * *

- experimental-system: endogenous CGRP receptor (Homo sapiens, UniProt O60894+Q16602)
- experiment-description: CGRP functional antagonism using SK-N-MC-BLA (4C10), β-lactamase transcriptional reporter assay
- measurement-setup: SK-N-MC (4C10) cells, inhibition of β-lactamase expression in the presence of 200 pM CGRP
reported-property: IC50

Here is how some compounds turned out for IC50.
# compound, experimental-system, measured-result
measured = [
    ("CC(C)(C)CCN1C(=O)[C@H](CC(=O)N2CCC(N3CCc4ccccc4NC3=O)CC2)SC1c1ccn(C2CCN(C(=O)OC(C)(C)C)CC2)n1 (some centres unmarked) [Compound 490]", "endogenous CGRP receptor (Homo sapiens, UniProt O60894+Q16602)", "> 5 µM"),
    ("CC(C)CCN1C(=O)C(CC(=O)N2CCC(N3CCc4ccccc4NC3=O)CC2)SC1c1c(Cl)cccc1Cl (centres unmarked) [Compound 89]", "endogenous CGRP receptor (Homo sapiens, UniProt O60894+Q16602)", "< 1 µM"),
]

Please report IC50 for every entry that follows.
1. Cc1cccc(C)c1C1SC(CC(=O)N2CCC(N3CCc4ccccc4NC3=O)CC2)C(=O)N1CCC(C)C (centres unmarked) [Compound 123]
2. CC(C)(C)CCN1C(=O)[C@H](CC(=O)N2CCC(n3c(=O)[nH]c4ncccc43)CC2)SC1c1cccc(F)c1N1CCC(F)C1 (some centres unmarked) [Compound 480]
3. CC(C)CCN1C(=O)C(CC(=O)N2CCC(n3c(=O)[nH]c4ccccc43)CC2)SC1c1ccccc1N1CCOCC1 (centres unmarked) [Compound 294]
4. C=CCN1C(=O)C(CC(=O)N2CCC(N3Cc4ccccc4NC3=O)CC2)SC1c1ccccc1 (centres unmarked) [Compound 254]
5. CC(C)(C)CCN1C(=O)C(CC(=O)N2CCC(N3CCc4ccccc4NC3=O)CC2)SC1c1cccc(F)c1N1CCNCC1 (centres unmarked) [Compound 391]
6. CC(C)CN1CCN(c2ccccc2[C@H]2S[C@@H](CC(=O)N3CCC(N4CCc5ccccc5NC4=O)CC3)C(=O)N2CCC(C)(C)C)C(=O)C1 [Compound 541]
7. CC(C)CCN1C(=O)C(CC(=O)N2CCC(N3Cc4ccccc4NC3=O)CC2)SC12CCC2 (centres unmarked) [Compound 275]
8. CC(C)CCN1C(=O)C(CC(=O)N2CCC(N3Cc4ccccc4NC3=O)CC2)SC12CCOCC2 (centres unmarked) [Compound 196]

1: < 1 µM; 2: 1 to 5 µM; 3: < 1 µM; 4: 1 to 5 µM; 5: > 5 µM; 6: < 1 µM; 7: > 5 µM; 8: 1 to 5 µM

* * *

Give IC50 for every item shown.
- experimental-system: endogenous CGRP receptor (Homo sapiens, UniProt O60894+Q16602)
- experiment-description: CGRP functional antagonism using SK-N-MC-BLA (4C10), β-lactamase transcriptional reporter assay
- measurement-setup: SK-N-MC (4C10) cells, inhibition of β-lactamase expression in the presence of 200 pM CGRP

Here is how some compounds turned out for IC50.
# compound, IC50
records = [
    ("CC(C)(C)CCN1C(=O)C(CC(=O)N2CCC(N3Cc4ccccc4NC3=O)CC2)SC12CCCc1ccccc12 (stereo not drawn) [Compound 315]", "< 1000 nM"),
    ("CC(C)(C)CCN1C(=O)C(CC(=O)N2CCC(N3Cc4ccccc4NC3=O)CC2)SC1c1cccc2cc[nH]c12 (stereo not drawn) [Compound 94]", "> 5000 nM"),
]

As a next step, examine the compound that follows.
The compound identified as CC(C)N1CCN(c2c(F)cccc2[C@H]2S[C@@](C)(CC(=O)N3CCC(N4CCc5ccccc5NC4=O)CC3)C(=O)N2CCC(C)(C)C)CC1 [Compound 432] registered its IC50 at < 1000 nM

All values here come from patent US8163737B2.
